Test system: NCI-H650
measurement_notes: relative viability (nuclei count vs DMSO), 5 days (fraction); higher = more cells survive
condition_notes: first compound 2.53 µM
quantity_measured: relative viability

>  <molecule>
CCCCCCCCCCCC1=C(O)C(=O)C=C(O)C1=O [Embelin] + COc1cccc2cc(-c3nc([C@H]4CC[C@H](C(=O)O)CC4)n4ncnc(N)c34)[nH]c12 [OSI-027] (partner 0.5 µM)

>  <quantitative_result>
0.388

$$$$
>  <molecule>
CCCCCCCCCCCC1=C(O)C(=O)C=C(O)C1=O [Embelin] + Cc1nc(Nc2ncc(C(=O)Nc3c(C)cccc3Cl)s2)cc(N2CCN(CCO)CC2)n1 [Dasatinib] (partner 0.075 µM)

>  <quantitative_result>
0.368

$$$$
>  <molecule>
CCCCCCCCCCCC1=C(O)C(=O)C=C(O)C1=O [Embelin] + COc1cc2c(Oc3ccc(NC(=O)C4(C(=O)Nc5ccc(F)cc5)CC4)cc3F)ccnc2cc1OCCCN1CCOCC1 [Foretinib] (partner 0.25 µM)

>  <quantitative_result>
1.08

$$$$
>  <molecule>
CCCCCCCCCCCC1=C(O)C(=O)C=C(O)C1=O [Embelin] + CC(=O)c1c(C)c2cnc(Nc3ccc(N4CCNCC4)cn3)nc2n(C2CCCC2)c1=O [Palbociclib] (partner 0.5 µM)

>  <quantitative_result>
0.34

$$$$

The reported measurements were obtained from the supplement of paper PMC10307832.
